The reported measurements were obtained from ChEMBL document CHEMBL3991601.

molecular target: BMP-2-inducible protein kinase (Homo sapiens, UniProt Q9NSY1); also: in the data inactive means no Kd found up to 30 µM
Sequence (Q9NSY1 whole entry): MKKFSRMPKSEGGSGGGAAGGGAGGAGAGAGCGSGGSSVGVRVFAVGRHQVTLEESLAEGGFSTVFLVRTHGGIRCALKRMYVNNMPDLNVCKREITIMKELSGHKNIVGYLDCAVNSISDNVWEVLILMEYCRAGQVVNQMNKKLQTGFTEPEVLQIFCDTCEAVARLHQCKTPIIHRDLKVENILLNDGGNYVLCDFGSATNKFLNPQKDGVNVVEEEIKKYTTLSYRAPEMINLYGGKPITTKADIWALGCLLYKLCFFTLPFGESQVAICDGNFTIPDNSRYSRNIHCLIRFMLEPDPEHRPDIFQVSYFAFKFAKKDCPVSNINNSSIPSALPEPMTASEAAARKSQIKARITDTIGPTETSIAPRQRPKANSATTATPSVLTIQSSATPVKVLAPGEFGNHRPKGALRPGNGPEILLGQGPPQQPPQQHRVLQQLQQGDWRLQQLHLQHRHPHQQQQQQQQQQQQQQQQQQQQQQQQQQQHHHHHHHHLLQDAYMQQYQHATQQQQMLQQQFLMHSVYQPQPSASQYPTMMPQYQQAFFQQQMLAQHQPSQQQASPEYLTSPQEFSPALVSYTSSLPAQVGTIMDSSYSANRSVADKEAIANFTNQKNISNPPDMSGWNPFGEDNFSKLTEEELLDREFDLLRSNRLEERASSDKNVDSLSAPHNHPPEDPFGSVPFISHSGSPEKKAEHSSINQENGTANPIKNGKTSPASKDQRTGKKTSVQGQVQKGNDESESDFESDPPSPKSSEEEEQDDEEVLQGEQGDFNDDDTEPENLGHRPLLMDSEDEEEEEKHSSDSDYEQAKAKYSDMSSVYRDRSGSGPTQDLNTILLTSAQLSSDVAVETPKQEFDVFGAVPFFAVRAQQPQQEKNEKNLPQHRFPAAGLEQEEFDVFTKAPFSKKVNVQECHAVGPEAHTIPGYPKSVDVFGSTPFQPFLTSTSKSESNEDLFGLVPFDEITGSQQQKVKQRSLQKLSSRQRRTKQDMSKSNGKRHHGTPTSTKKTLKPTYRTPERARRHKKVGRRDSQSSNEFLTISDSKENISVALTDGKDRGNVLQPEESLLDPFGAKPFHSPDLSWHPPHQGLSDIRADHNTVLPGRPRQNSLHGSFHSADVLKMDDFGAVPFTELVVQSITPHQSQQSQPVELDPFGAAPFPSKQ
Where a name gives a salt, the structure may show the parent alone. Activity calls are given as the source filed them.
Outcomes: 1 (active), 0 (inactive)

| COMPOUND | MEASURED_ON | CLASS_ASSIGNMENT |
| --- | --- | --- |
| Cn1cnc2c(F)c(Nc3ccc(Br)cc3F)c(C(=O)NOCCO)cc21 [BINIMETINIB] | BMP-2-inducible protein kinase (Homo sapiens, UniProt Q9NSY1) | 0 |
| CCS(=O)(=O)N1CCN(c2ccc(Nc3ncc(C(N)=O)c(NC4CC4)n3)cc2)CC1 [Cerdulatinib Hydrochloride] | BMP-2-inducible protein kinase (Homo sapiens, UniProt Q9NSY1) | 1 |
| Cc1nc(NC(=O)N2CCC[C@H]2C(N)=O)sc1-c1ccnc(C(C)(C)C(F)(F)F)c1 [ALPELISIB] | BMP-2-inducible protein kinase (Homo sapiens, UniProt Q9NSY1) | 0 |
| Cc1nc2cc(-n3ncc(C(=O)c4cc5ccccc5[nH]4)c3N)ccc2[nH]1 [FGFR INHIBITOR DEBIO 1347] | BMP-2-inducible protein kinase (Homo sapiens, UniProt Q9NSY1) | 0 |
| COc1ncc(-c2ccc3nccc(-c4ccnnc4)c3c2)cc1NS(=O)(=O)c1ccc(F)cc1F [OMIPALISIB] | BMP-2-inducible protein kinase (Homo sapiens, UniProt Q9NSY1) | 0 |
| CCCCCCCCCCCCCCCCCCOP(=O)([O-])OC1CC[N+](C)(C)CC1 [PERIFOSINE] | BMP-2-inducible protein kinase (Homo sapiens, UniProt Q9NSY1) | 0 |
| Cc1cnc(NC(=O)Nc2cc(Br)c(C)cc2OC[C@@H]2CNCCO2)cn1 [RABUSERTIB] | BMP-2-inducible protein kinase (Homo sapiens, UniProt Q9NSY1) | 0 |
| Cc1cccc(-c2nn3c(c2-c2ccnc4ccc(C(N)=O)cc24)CCC3)n1 [GALUNISERTIB] | BMP-2-inducible protein kinase (Homo sapiens, UniProt Q9NSY1) | 0 |

---

target: UniProtKB Q04912
Sequence (Q04912 25-304 limits assumed): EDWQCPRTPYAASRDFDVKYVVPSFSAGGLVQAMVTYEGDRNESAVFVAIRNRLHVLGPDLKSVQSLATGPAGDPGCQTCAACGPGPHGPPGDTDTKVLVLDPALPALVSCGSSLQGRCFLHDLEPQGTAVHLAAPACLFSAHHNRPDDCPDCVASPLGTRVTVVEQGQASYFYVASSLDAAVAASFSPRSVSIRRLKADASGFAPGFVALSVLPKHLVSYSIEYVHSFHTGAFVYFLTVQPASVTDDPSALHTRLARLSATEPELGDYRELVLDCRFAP
Sequence (Q04912 310-1400 limits assumed): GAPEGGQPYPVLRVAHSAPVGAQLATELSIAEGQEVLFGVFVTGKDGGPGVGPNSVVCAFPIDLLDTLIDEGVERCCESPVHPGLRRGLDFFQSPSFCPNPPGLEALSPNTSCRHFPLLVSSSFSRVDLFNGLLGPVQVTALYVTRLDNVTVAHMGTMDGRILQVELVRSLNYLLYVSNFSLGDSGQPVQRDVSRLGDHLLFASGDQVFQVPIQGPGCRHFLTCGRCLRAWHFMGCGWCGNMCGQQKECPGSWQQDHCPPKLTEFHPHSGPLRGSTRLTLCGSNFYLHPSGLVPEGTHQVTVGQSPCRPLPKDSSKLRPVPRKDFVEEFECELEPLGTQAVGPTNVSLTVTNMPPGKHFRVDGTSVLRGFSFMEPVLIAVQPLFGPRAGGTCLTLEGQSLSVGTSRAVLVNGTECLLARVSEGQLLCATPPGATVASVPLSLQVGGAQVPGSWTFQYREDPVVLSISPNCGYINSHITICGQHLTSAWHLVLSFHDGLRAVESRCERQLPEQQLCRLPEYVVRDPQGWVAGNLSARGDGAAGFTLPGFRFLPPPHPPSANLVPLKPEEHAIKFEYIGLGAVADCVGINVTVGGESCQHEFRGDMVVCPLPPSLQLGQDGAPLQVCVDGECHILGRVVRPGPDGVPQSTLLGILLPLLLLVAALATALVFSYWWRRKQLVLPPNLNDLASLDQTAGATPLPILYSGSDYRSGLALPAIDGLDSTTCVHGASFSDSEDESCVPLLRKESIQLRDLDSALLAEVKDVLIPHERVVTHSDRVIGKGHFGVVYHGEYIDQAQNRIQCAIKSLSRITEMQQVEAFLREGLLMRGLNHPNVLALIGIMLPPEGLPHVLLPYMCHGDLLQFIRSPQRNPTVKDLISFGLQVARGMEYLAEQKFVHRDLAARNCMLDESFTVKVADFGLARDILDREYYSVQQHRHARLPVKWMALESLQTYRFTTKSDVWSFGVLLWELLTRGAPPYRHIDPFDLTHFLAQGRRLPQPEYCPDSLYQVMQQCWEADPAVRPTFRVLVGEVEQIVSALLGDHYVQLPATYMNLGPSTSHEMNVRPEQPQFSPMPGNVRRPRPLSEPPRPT
Activity calls are given as the source filed them.
Labels: True for active, False for inactive

| SMILES_STRING | CLASS_ASSIGNMENT |
| --- | --- |
| C[C@@H](Oc1cc(C(=O)Nc2ccc(C(=O)N3CCN(C)CC3)cc2)nnc1N)c1c(Cl)ccc(F)c1Cl | False |
| CCS(=O)(=O)c1cccc(-c2cc(C(=O)NC3CCN(C)CC3)c(C)c3[nH]c4ncc(C)cc4c23)c1 | False |
| Cn1cc(-c2cnc3ccc4ccc(CS(=O)(=O)NCc5ccccn5)cc4c(=O)c3c2)cn1 | True |
| COc1cc2c(Nc3ccc(Cl)c(Cl)c3F)ncnc2cc1OC[C@@H]1C[C@@H]2CN(C)C[C@@H]2C1 | False |

---

biological target: Protein-tyrosine kinase 2-beta (Homo sapiens); also: in the data inactive means no Kd found up to 30 µM
Sequence (Q14289 whole entry): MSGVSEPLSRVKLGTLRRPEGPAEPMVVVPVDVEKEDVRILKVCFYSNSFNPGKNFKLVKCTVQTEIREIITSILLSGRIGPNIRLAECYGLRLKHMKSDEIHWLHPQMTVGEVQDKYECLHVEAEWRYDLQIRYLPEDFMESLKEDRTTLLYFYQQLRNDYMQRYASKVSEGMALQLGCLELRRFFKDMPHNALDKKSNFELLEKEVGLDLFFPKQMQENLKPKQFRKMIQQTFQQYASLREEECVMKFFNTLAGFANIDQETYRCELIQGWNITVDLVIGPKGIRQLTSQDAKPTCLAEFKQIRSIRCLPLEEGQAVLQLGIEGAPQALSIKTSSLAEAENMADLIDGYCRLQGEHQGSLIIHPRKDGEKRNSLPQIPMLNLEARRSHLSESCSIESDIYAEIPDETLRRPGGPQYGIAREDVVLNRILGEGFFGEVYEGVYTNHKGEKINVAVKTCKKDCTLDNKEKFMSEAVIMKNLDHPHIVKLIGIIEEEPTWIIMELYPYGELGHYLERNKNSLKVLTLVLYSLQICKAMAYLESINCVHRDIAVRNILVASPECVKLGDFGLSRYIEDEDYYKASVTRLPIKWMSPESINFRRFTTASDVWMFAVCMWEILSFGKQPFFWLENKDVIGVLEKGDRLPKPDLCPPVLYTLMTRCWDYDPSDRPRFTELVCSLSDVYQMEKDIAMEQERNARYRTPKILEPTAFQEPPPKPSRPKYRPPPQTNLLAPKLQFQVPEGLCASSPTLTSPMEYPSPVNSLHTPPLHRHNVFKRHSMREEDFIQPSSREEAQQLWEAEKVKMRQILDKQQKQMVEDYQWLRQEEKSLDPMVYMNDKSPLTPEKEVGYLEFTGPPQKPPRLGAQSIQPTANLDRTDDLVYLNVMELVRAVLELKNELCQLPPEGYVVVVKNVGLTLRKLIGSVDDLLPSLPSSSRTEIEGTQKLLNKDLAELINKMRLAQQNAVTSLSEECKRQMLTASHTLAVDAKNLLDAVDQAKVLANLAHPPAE
Calls of active or inactive are those of the source.
Possible outcomes: active, inactive

| COMPOUND | MEASURED_ON | CLASS_ASSIGNMENT |
| --- | --- | --- |
| CC(=O)c1cnc2ccc(-c3cc(Cl)c(O)c(Cl)c3)nc2c1N[C@H]1CC[C@H](CN(C)C)CC1 | Protein-tyrosine kinase 2-beta (Homo sapiens) | active |
| C[C@H]1CNCCCN1S(=O)(=O)c1cccc2cncc(F)c12 | Protein-tyrosine kinase 2-beta (Homo sapiens) | inactive |
| O=C(Nc1cc(C(F)(F)F)cc(C(F)(F)F)c1)c1cc(Cl)ccc1O | Protein-tyrosine kinase 2-beta (Homo sapiens) | inactive |
| Cn1cc(-c2cnn3c(N)c(Br)c([C@@H]4CCCNC4)nc23)cn1 | Protein-tyrosine kinase 2-beta (Homo sapiens) | inactive |
| O=C1NC(=O)[C@@H](c2cn3c4c(cccc24)CCC3)[C@@H]1c1c[nH]c2ccccc12 [TIVANTINIB] | Protein-tyrosine kinase 2-beta (Homo sapiens) | inactive |

---

target: Phosphatidylinositol 5-phosphate 4-kinase type-2 gamma (Homo sapiens, UniProt Q8TBX8); also: in the data inactive means no Kd found up to 30 µM
Sequence (Q8TBX8 whole entry): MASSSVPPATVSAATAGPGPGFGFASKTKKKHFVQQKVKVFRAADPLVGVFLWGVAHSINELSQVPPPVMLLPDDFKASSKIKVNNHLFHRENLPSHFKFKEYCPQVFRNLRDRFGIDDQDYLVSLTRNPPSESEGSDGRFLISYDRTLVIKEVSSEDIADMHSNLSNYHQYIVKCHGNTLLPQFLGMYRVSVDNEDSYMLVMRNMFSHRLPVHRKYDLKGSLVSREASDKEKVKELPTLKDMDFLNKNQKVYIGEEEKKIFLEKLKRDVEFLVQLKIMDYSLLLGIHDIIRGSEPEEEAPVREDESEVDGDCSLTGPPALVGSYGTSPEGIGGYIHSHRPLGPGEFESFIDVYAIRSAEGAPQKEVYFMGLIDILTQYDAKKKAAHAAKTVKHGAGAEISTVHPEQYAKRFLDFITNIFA
Counter-ions that a name gives are not always drawn. Active and inactive are the calls of the source.
Classes used: 1.0 (active), 0.0 (inactive)

| MOLECULE | CLASS_ASSIGNMENT |
| --- | --- |
| CN1C/C=C/CCOc2cccc(c2)-c2ccnc(n2)Nc2cccc(c2)C1 | 0.0 |
| Cc1nc(Nc2n[nH]c3c2CN(C(=O)N[C@H](CN(C)C)c2ccccc2)C3(C)C)c2sccc2n1 | 0.0 |
| COc1c(OCCCN2CCOCC2)ccc2c1N=C(NC(=O)c1cnc(N)nc1)N1CCN=C21 | 0.0 |
| Cc1cnc(NC(=O)Nc2cc(Br)c(C)cc2OC[C@@H]2CNCCO2)cn1 | 0.0 |
| CNC(=O)c1nn(C)c2c1C(C)(C)Cc1cnc(Nc3ccc(N4CCN(C)CC4)cc3)nc1-2 | 1.0 |
| CC(=O)NCC(=O)N1[C@@H]2CC[C@H]1c1ccc(Nc3ncc(C(F)(F)F)c(NC4CCC4)n3)cc12 | 0.0 |
| CCNC(=O)C#Cc1ccc2c(c1)NC(=O)/C2=C(\Nc1ccc(CN(C)C)cc1)c1ccccc1 | 0.0 |
| C[C@@H](NC(=O)c1ncnc(N)c1Cl)c1ncc(C(=O)Nc2cc(C(F)(F)F)c(Cl)cn2)s1 | 0.0 |
| CC(C)c1cc(CNc2nc(Nc3cc(C4CC4)[nH]n3)cc(N3CCN(C)CC3)n2)on1 | 0.0 |
| CO[C@H]1C[C@@H]2CC[C@@H](C)[C@@](O)(O2)C(=O)C(=O)N2CCCC[C@H]2C(=O)O[C@H]([C@H](C)C[C@@H]2CC[C@@H](OP(C)(C)=O)[C@H](OC)C2)CC(=O)[C@H](C)/C=C(\C)[C@@H](O)[C@@H](OC)C(=O)[C@H](C)C[C@H](C)/C=C/C=C/C=C/1C | 0.0 |
| NC(=O)Nc1cc(-c2cccc(F)c2)sc1C(=O)N[C@H]1CCCNC1 | 0.0 |
| CCOc1cc2ncc(C#N)c(Nc3ccc(F)c(Cl)c3)c2cc1NC(=O)/C=C/CN(C)C | 0.0 |
| CN(C[C@@H]1COCCO1)S(=O)(=O)Nc1ccc2ccc3ncc(-c4cnn(C)c4)cc3c(=O)c2c1 | 1.0 |
| COc1cc2c(Nc3ccc(Cl)c(Cl)c3F)ncnc2cc1OC[C@@H]1C[C@@H]2CN(C)C[C@@H]2C1 | 0.0 |
| Cn1cnc2c(F)c(Nc3ccc(Br)cc3F)c(C(=O)NOCCO)cc21 | 0.0 |
| CCS(=O)(=O)N1CCN(c2ccc(Nc3ncc(C(N)=O)c(NC4CC4)n3)cc2)CC1 [Cerdulatinib Hydrochloride] | 0.0 |
| C=CC(=O)Nc1cc2c(Nc3ccc(F)c(Cl)c3)ncnc2cc1C#CC(C)(C)N1CCN(C)CC1 [AV-412 FREE BASE] | 0.0 |
| COc1ccc(S(=O)(=O)N(C(C)=O)c2ccccc2/C=C/c2cc[n+]([O-])cc2)cc1 | 0.0 |
| N#CC1(c2ccc(NC(=O)c3cccnc3NCc3ccncc3)cc2)CCCC1 | 0.0 |
| CNC(=O)c1cccc2cc(Oc3ccnc4cc(OCC5(N)CC5)c(OC)cc34)ccc12 | 0.0 |
| Cc1nc2cc(-c3nn(C(C)C)c4ncnc(N)c34)ccc2o1 | 0.0 |
| CCn1c(C(=O)N(C2CC2)C2CC2)cc2c3c(ncn3C)c(Nc3cc(C)n(C)n3)nc21 | 0.0 |
| CO[C@H]1C[C@@H]2CC[C@@H](C)[C@@](O)(O2)C(=O)C(=O)N2CCCC[C@H]2C(=O)O[C@H]([C@H](C)C[C@@H]2CC[C@@H](OC(=O)C(C)(CO)CO)[C@H](OC)C2)CC(=O)[C@H](C)/C=C(\C)[C@@H](O)[C@@H](OC)C(=O)[C@H](C)C[C@H](C)/C=C/C=C/C=C/1C | 0.0 |
| Cc1cc(Nc2ncnc3ccc(NC4=NC(C)(C)CO4)cc23)ccc1Oc1ccn2ncnc2c1 | 0.0 |
| Cc1cc(Nc2ncc(Cl)c(Nc3ccccc3S(=O)(=O)C(C)C)n2)c(OC(C)C)cc1C1CCNCC1 | 0.0 |
| FC(F)(F)c1ccc(/C=C/c2nc(COc3ccc(CCCCn4ccnn4)cc3)co2)cc1 | 0.0 |
| C[C@H]1CNCCCN1S(=O)(=O)c1cccc2cncc(F)c12 | 0.0 |
| Nc1ncnc2c1c(-c1cccc(OCc3ccccc3)c1)cn2[C@H]1C[C@@H](CN2CCC2)C1 | 0.0 |

---

Recorded Kd values for a group of compounds are listed next.
target: Protein kinase C delta type (Homo sapiens, UniProt Q05655); also: in the data inactive means no Kd found up to 30 µM
Sequence (Q05655 whole entry): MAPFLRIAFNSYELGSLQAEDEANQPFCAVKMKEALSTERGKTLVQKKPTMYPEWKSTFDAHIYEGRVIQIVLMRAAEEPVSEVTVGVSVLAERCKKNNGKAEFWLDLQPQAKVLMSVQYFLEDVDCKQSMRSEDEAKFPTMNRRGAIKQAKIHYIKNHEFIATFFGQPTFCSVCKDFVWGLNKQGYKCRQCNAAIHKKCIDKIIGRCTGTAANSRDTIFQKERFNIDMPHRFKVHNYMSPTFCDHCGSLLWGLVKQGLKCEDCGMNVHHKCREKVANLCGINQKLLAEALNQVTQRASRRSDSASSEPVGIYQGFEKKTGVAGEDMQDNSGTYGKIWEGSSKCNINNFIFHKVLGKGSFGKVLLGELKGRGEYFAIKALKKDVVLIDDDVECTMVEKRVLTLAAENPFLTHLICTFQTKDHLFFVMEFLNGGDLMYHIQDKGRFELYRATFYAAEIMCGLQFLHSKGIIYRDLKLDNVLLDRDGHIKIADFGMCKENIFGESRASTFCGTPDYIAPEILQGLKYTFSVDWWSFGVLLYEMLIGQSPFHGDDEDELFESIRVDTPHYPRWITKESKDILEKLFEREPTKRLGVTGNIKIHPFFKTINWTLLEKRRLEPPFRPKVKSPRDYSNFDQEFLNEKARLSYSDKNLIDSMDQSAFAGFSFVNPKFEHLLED
Active and inactive are the calls of the source.

| SMILES_STRING | Kd |
| --- | --- |
| CCn1c(C(=O)N(C2CC2)C2CC2)cc2c3c(ncn3C)c(Nc3cc(C)n(C)n3)nc21 | > 30 µM (inactive) |
| CN1C/C=C/CCOc2cccc(c2)-c2ccnc(n2)Nc2cccc(c2)C1 | 0.996 µM (active) |
| Cc1cc(Nc2ncc(Cl)c(Nc3ccccc3S(=O)(=O)C(C)C)n2)c(OC(C)C)cc1C1CCNCC1 | > 30 µM (inactive) |
| Cc1cc(C(=O)NOCCO)c(Nc2ccc(I)cc2F)n(C)c1=O | > 30 µM (inactive) |
| N#CC1(c2ccc(NC(=O)c3cccnc3NCc3ccncc3)cc2)CCCC1 | > 30 µM (inactive) |
| NC(=O)Nc1cc(-c2cccc(F)c2)sc1C(=O)N[C@H]1CCCNC1 | 0.928 µM |
| C[C@H]1CNCCCN1S(=O)(=O)c1cccc2cncc(F)c12 | 2.47 µM (active) |
| COc1cc2ncnc(Oc3cccc(NC(=O)Nc4cc(C(C)(C)C(F)(F)F)on4)c3)c2cc1OC | > 30 µM (inactive) |
| Nc1ncnc2c1c(-c1cccc(OCc3ccccc3)c1)cn2[C@H]1C[C@@H](CN2CCC2)C1 | > 30 µM (inactive) |
| CC(C)c1cc(CNc2nc(Nc3cc(C4CC4)[nH]n3)cc(N3CCN(C)CC3)n2)on1 | > 30 µM (inactive) |
